Test: Tmax in rat at 10 mg/kg, po
Format: ADME, organism-based
Settings: in vivo
metric: Tmax
Hey, just the number and the unit after it is fine.

If you can, please state the reported Tmax value of "C/C(=C\c1noc(Cn2cnc3ncn(C)c3c2=O)n1)c1ccc(Cl)cc1" .
2 h

* * *

Kindly state half-life for each of the entries shown.
Test: Half life in rat at 30 mg/kg, po
Format: ADME, organism-based
Settings: in vivo
# include the unit after the value

Report half-life for "Cn1cnc2ncn(Cc3nc(CCc4ccc(Cl)cc4)no3)c(=O)c21" please.
2.8 h

Field entry: "C/C(=C\c1nc(Cn2cnc3ncccc3c2=O)no1)c1ccc(Cl)cc1"
5.1 h

Also "O=c1c2cccnc2ncn1Cc1noc(CCc2ccc(Cl)cc2)n1" , if possible.
4 h

* * *

Assay: Solubility of compound in simulated intestinal fluid
Assay type: ADME
metric: solubility (µM)
The answer is to be given in µM; state only the numeric part.

For the compound shown here, "Cn1cnc2ncn(Cc3nc(CCc4ccc(Cl)cc4)no3)c(=O)c21" , give the reported solubility.
248

* * *

Test: Apparent intrinsic clearance in human liver microsomes
Assay type: ADME
Settings: read-out: CLH(app)
For each of the molecules below, state its microsomal CLint.
Kindly answer with a numeric value in µL/min/mg, unit omitted.

What does the data say about its microsomal CLint? Entry: "Cc1cccc2ncn(CC(=O)NCCc3ccc(Cl)cc3)c(=O)c12"
301

Now the same for "Cc1cccc2c(=O)n(CC(=O)NCCc3ccc(OC(F)F)cc3)cnc12"
194

Same read-out for "O=c1c2cccnc2ncn1Cc1noc(CCc2ccc(Cl)cc2)n1" ?
35

Try this molecule too: "Cc1cccc2c(=O)n(CC(=O)NCCc3ccc(Cl)cc3)cnc12"
224

Also, "O=C(Cn1cnc2ccccc2c1=O)NCCc1ccc(Cl)cc1" please.
31

Again, but for "O=C(Cn1cnc2c(F)cccc2c1=O)NCCc1ccc(Cl)cc1"
40

Queued: "O=c1c2cccnc2ncn1Cc1nc(CCc2ccc(Cl)cc2)no1"
32

Try the molecule "Cn1cnc2ncn(Cc3noc(CCc4ccc(Cl)cc4)n3)c(=O)c21"
19

Same lookup for "Cc1ccc2c(=O)n(CC(=O)NCCc3ccc(Cl)cc3)cnc2c1" , please.
144

Okay, and "C/C(=C\c1nc(Cn2cnc3ncn(C)c3c2=O)no1)c1ccc(Cl)cc1" ?
76

Here is the next molecule: "O=C(Cn1cnc2cnccc2c1=O)NCCc1ccc(Cl)cc1"
14

Would you mind doing "COc1cccc2c(=O)n(CC(=O)NCCc3ccc(Cl)cc3)cnc12" as well?
34

Here is the next molecule: "Cc1ccnc2ncn(Cc3nc(CCc4ccc(Cl)cc4)no3)c(=O)c12"
340

Item: O=c1c2cccnc2ncn1Cc1nc(CC(F)c2ccc(Cl)cc2)no1 (racemic)
56

Lookup "O=C(Cn1cnc2c(C(F)(F)F)cccc2c1=O)NCCc1ccc(Cl)cc1"
397

Repeat for the following molecule: "N#Cc1cccc2c(=O)n(CC(=O)NCCc3ccc(Cl)cc3)cnc12"
49

* * *

Kindly state microsomal CLint for each of the entries shown.
Experiment: Apparent intrinsic clearance in rat liver microsomes
Assay type: ADME
Conditions: read-out: CLH(app)
Field format: number, assumed µL/min/mg, no unit text.

For "COc1cccc2c(=O)n(CC(=O)NCCc3ccc(Cl)cc3)cnc12" , what is its reported microsomal CLint?
455

Query "O=c1c2cccnc2ncn1Cc1nc(CCc2ccc(Cl)cc2)no1" next
131

Next: "Cc1cccc2ncn(CC(=O)NCCc3ccc(Cl)cc3)c(=O)c12"
736

Input "Cn1cnc2ncn(Cc3nc(CCc4ccc(Cl)cc4)no3)c(=O)c21"
41

Consider next the compound "Cc1cccc2c(=O)n(CC(=O)NCCc3ccc(Cl)cc3)cnc12" in the same way.
706

* * *

Assay: Apparent intrinsic clearance in human liver microsomes
Type: ADME
Conditions: read-out: CLH(app)
metric: microsomal CLint

# microsomal CLint lookup, item "C/C(=C\c1noc(Cn2cnc3ncn(C)c3c2=O)n1)c1ccc(Cl)cc1"
< 14 µL/min/mg

Also "Cn1cnc2ncn(Cc3nc(CCc4ccc(Cl)cc4)no3)c(=O)c21" , if possible.
< 14 µL/min/mg

Try this compound too: "O=C(Cn1cnc2ncccc2c1=O)NCCc1ccc(Cl)cc1"
< 14 µL/min/mg

* * *

Assay: Apparent intrinsic clearance in rat liver microsomes
Assay type: ADME
Details: read-out: CLH(app)
metric: microsomal CLint

Entry "Cc1cccc2c(=O)n(CC(=O)NCCc3ccc(OC(F)F)cc3)cnc12" has what microsomal CLint?
> 399 µL/min/mg

Same thing, different compound: "O=C(Cn1cnc2c(C(F)(F)F)cccc2c1=O)NCCc1ccc(Cl)cc1"
> 399 µL/min/mg

Would you kindly repeat that for "C/C(=C\c1noc(Cn2cnc3ncn(C)c3c2=O)n1)c1ccc(Cl)cc1" ?
< 14 µL/min/mg

Next compound: "Cc1ccnc2ncn(Cc3nc(CCc4ccc(Cl)cc4)no3)c(=O)c12"
> 399 µL/min/mg

Input "C/C(=C\c1nc(Cn2cnc3ncn(C)c3c2=O)no1)c1ccc(Cl)cc1"
< 14 µL/min/mg

Ref: ChEMBL document CHEMBL3784976
